Source listed as PubChem BioAssay AID1159580.

- ASSAY NOTES: chemical genetic growth profiling, strain panel (AID 1159580);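 further: tested at 20 µM; growth read once vehicle control cultures reached saturation at 30 °C; lower values mean less growth of the strain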
- RUN PARAMETERS: S. cerevisiae deletion strains, growth OD, locus YKR001C, strain vps1
The whole screen tested about 5,500 compounds, of which about 2,000 (36%) were called active. Roughly 18% stayed inconclusive and do not appear here. No stated cut-off is given here; in the data, active means normalized growth mostly below about 0.91 (no sharp cut-off); inconclusive means no clear call, values can overlap the other calls; inactive means mostly above about 0.92. The list shows a part of the results.
Pick from active, inactive when you respond.

{"COMPOUND": "CCC(C)C(OC(C)=O)C(=O)OC1C(O)C2C3(C)C=CC(=O)C(C)(C)C3CC(OC(=O)C(O)C(C)C)C2(C)C23OC2CC(c2ccoc2)C13C (centres undefined)", "CLASS": "inactive"}
{"COMPOUND": "O=C1C=CC(=C(c2ccc(O)cc2)c2ccc(O)cc2)C=C1", "CLASS": "inactive"}
{"COMPOUND": "CC(CCc1ccccc1)NC(C)C(O)c1ccc(O)cc1 (centres undefined)", "CLASS": "inactive"}
{"COMPOUND": "CNC(C)[C@H](O)c1ccccc1 (some centres undefined)", "CLASS": "inactive"}
{"COMPOUND": "ClC1=C(Cl)C2(Cl)C3C(Cl)C=CC3C1(Cl)C2(Cl)Cl (centres undefined)", "CLASS": "inactive"}
{"COMPOUND": "O=C(O)c1c2ccccc2cc2ccccc12", "CLASS": "inactive"}
{"COMPOUND": "CC(=O)NC1SCCC1=O (centres undefined)", "CLASS": "inactive"}
{"COMPOUND": "C=C1C([C@]2(C)C(CC(=O)OC)[C@@](C)(COC(C)=O)OC(=O)C[C@@H]2OC(C)=O)[C@@H](OC=O)[C@H](OC(=O)C(OC(C)=O)C(C)CC)[C@@]2(C)[C@H](c3ccoc3)CC(=O)C12O (some centres undefined)", "CLASS": "inactive"}

query: Give the logged outcome of this assay for the following compound: CCCCNc1cc(C(=O)O)cc(S(N)(=O)=O)c1Oc1ccccc1
result: inactive

query: Please do the same for COc1ccc2c(c1)OCc1c-2oc2cc(OC)ccc12 as well.
result: active

query: Please do the same for OCC(O)C(O)C(O)CO (centres undefined) as well.
result: inactive

query: Please do the same for COc1ccc2c(C)cc(=O)oc2c1 as well.
result: inactive

query: Please do the same for C[C@]12CC(=O)C3C(CC[C@@H]4C[C@H](O)CC[C@]34C)C1CC[C@]2(O)C(=O)CO (some centres undefined) as well.
result: inactive

query: Please do the same for C[C@H]1OC(n2cc(F)c(=O)[nH]c2=O)C(O)[C@@H]1O (some centres undefined) as well.
result: inactive

query: Please do the same for CC(=O)OCC(=O)[C@@]1(O)CCC2C3CCC4=CC(=O)CC[C@]4(C)C3C(=O)C[C@@]21C (some centres undefined) as well.
result: inactive

query: Please do the same for CC(=O)OCC(=O)[C@H]1CCC2C3CCC4=CC(=O)CC[C@]4(C)C3CC[C@@]21C (some centres undefined) as well.
result: active

query: Please do the same for CN[C@@H](C)[C@@H](O)c1ccccc1 as well.
result: inactive

query: Please do the same for C=C1C([C@]2(C)C(CC(=O)OC)[C@@](C)(COC(C)=O)OC(=O)C[C@@H]2OC(C)=O)[C@@H](OC=O)[C@H](OC(=O)C(O)C(C)CC)[C@@]2(C)[C@H](c3ccoc3)CC(=O)C12O (some centres undefined) as well.
result: inactive

query: Please do the same for O=C(CC[N+](=O)[O-])OC[C@H]1O[C@@H](O)[C@H](OC(=O)CC[N+](=O)[O-])[C@@H](OC(=O)CC[N+](=O)[O-])[C@@H]1OC(=O)CC[N+](=O)[O-] as well.
result: inactive
